# Target system: IRAK4 (Homo sapiens)
# Test details: 2-hour 1 mM ATP IRAK4 Biochemical assay (as above, but with 100 pM IRAK4 and 1 mM ATP)
# Study conditions: IRAK4 MSD BIOCHEMICAL (1 mM ATP) IC50 (μM), 100 pM IRAK4, 2 hours
Mark 1 for IC50 under 0.006 µM, -1 if at or over.

{"columns": ["Molecule", "Qualitative label"],
 "data": [
  ["CCOc1cc2nc([C@H](F)[C@H]3CCOC3)cn2cc1NC(=O)c1cccc(C(F)(F)F)n1 (single isomer, unassigned) [Example 146]", 1]
]}

Query block: Consider O=C(Nc1ccc2nc(CC3CCOC3)cn2c1)c1cccc(C(F)F)n1 (centres unmarked) [Example 355] . Does its IC50 lie strictly below 0.006 µM?
Result block: -1

Query block: Below 0.006 µM on IC50? Entry Cc1nc(NC(=O)c2cccc(C(F)F)n2)cn2cc(C3CCOCC3)nc12 [Example 296]
Result block: -1

Query block: Consider O=C(Nc1cn2cc(C3CC3)nc2cc1N1CCN(CC(F)F)CC1)c1cccc(C(F)(F)F)n1 [Example 24] . Does its IC50 lie strictly below 0.006 µM?
Result block: 1

Query block: Determine if CCOc1cc2nc(C3CN(C(C)=O)C3)cn2cc1NC(=O)c1cccc(C(F)F)n1 [Example 81] shows IC50 strictly lower than 0.006 µM.
Result block: 1

Query block: Determine if CC(C)Oc1nc2nc(C34COC(C)(C3)C4)c(Cl)n2cc1NC(=O)c1cccc(C(F)F)n1 [Example 576, 2,2,2-trifluoroacetate] shows IC50 strictly lower than 0.006 µM.
Result block: -1

---

# Target system: IRAK4 (Homo sapiens)
# Test details: 2-hour 1 mM ATP IRAK4 Biochemical assay (as above, but with 100 pM IRAK4 and 1 mM ATP)
# Study conditions: read-out: IRAK4 MSD BIOCHEMICAL (1 mM ATP) IC50, 100 pM IRAK4, 2 hours
Observed property: pIC50
Answers are plain numbers, as −log10 of the molar value.

Query block: Could you tell me which pIC50 is on file for COc1nc(NC(=O)c2cccc(C(F)F)n2)cn2cc(C3CCCOC3)nc12 (single isomer, unassigned) ?
Result block: 8.40

---

Consider the following compounds; for each one, report its IC50.
# Target system: IRAK4 (Homo sapiens)
# Sequence (Q9NWZ3 1-460): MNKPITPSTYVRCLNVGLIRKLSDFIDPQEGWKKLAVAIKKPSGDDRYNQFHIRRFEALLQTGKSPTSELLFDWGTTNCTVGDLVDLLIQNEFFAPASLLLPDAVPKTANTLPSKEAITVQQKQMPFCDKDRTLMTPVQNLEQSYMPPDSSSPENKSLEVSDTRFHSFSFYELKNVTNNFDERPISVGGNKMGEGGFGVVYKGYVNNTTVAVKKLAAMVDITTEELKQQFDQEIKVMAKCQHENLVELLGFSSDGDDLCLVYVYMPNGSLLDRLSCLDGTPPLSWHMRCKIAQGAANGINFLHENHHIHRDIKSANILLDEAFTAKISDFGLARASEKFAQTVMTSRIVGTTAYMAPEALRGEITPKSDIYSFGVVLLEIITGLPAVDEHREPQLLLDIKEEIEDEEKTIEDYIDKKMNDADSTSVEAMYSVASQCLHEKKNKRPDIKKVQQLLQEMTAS
# Test details: 2-hour 1 mM ATP IRAK4 Biochemical assay (as above, but with 100 pM IRAK4 and 1 mM ATP)
# Study conditions: IRAK4 MSD BIOCHEMICAL (1 mM ATP) IC50 (μM), 100 pM IRAK4, 2 hours
Numbers only, in µM.

Recorded results for 2 compounds are shown here.
{"columns": ["Compound", "Observed property", "Result number"],
 "data": [
  ["CCOc1cc2nc(C3CCOCC3)cn2cc1NC(=O)c1cccc(C(F)F)n1", "IC50", 0.001],
  ["O=C1CC[C@@H](CCOc2cc3nc(C4CC4)cn3cc2NC(=O)c2cccc(C(F)F)n2)N1", "IC50", 0.032]
]}

Could I get IC50 for every one of these entries?
1. O=C(Nc1cn2cc(C3CCOCC3)nc2cc1C(F)(F)F)c1cccc(C(F)F)n1
2. CCOc1cc2nc([C@H](O)C3CC3)cn2cc1NC(=O)c1cccc(C(F)(F)F)n1 (single isomer, unassigned)

Result block:
0.052
0.012
